Test: self-splicing fitness, log relative to wild type (ln ratio); higher = more splicing; Tetrahymena group I intron in knt gene, E. coli kanamycin selection, DiMSum; sequences stand for … in CUCUCU…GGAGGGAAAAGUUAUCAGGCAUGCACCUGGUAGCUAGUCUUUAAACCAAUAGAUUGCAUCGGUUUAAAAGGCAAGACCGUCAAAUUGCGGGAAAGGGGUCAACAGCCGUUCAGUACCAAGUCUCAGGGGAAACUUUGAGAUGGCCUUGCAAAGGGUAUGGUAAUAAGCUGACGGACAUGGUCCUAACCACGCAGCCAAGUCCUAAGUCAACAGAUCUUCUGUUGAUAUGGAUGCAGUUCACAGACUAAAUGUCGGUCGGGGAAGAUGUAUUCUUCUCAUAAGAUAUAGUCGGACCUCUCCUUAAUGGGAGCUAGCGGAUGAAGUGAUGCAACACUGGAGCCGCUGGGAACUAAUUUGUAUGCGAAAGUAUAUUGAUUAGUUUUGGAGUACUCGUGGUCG;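 further: selection with 25 µg/mL kanamycin versus none on LB agar overnight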
Details: 30 °C
Criterion: self-splicing fitness (ln) meeting or surpassing -2. Met: 1. Not met: 0.

[
  {
    "residue.string": "AGGAAGCAAUAUUACGGUCC",
    "class.assignment": 1
  },
  {
    "residue.string": "GCAAAGCAAUAUUACGCGGU",
    "class.assignment": 0
  },
  {
    "residue.string": "GGCCAGCAAUAUUACGGUAC",
    "class.assignment": 0
  },
  {
    "residue.string": "AUCAAGCAAUAUUACGCCCC",
    "class.assignment": 1
  },
  {
    "residue.string": "CCAAAGCAAUAUUACGGCUG",
    "class.assignment": 1
  },
  {
    "residue.string": "AUCGAGCAAUAUUACGCGGG",
    "class.assignment": 0
  },
  {
    "residue.string": "UUGCAGCAAUAUUACGGUCC",
    "class.assignment": 0
  },
  {
    "residue.string": "AAGUAGCAAUAUUACGAGUA",
    "class.assignment": 1
  },
  {
    "residue.string": "AUGCAGCAAUAUUACGAUUC",
    "class.assignment": 0
  },
  {
    "residue.string": "UCCGAGCAAUAUUACGAGGG",
    "class.assignment": 0
  },
  {
    "residue.string": "GCGCAGCAAUAUUACGAAUG",
    "class.assignment": 1
  },
  {
    "residue.string": "UCACAGCAAUAUUACGUGUU",
    "class.assignment": 0
  },
  {
    "residue.string": "GUCUAGCAAUAUUACGGAUG",
    "class.assignment": 1
  },
  {
    "residue.string": "CACCAGCAAUAUUACGCAAA",
    "class.assignment": 0
  },
  {
    "residue.string": "AACCAGCAAUAUUACGGCGU",
    "class.assignment": 1
  },
  {
    "residue.string": "CGCAAGCAAUAUUACGAAUA",
    "class.assignment": 0
  }
]

###

Assay: self-splicing fitness, log relative to wild type (ln ratio); higher = more splicing; Tetrahymena group I intron in knt gene, E. coli kanamycin selection, DiMSum; sequences stand for … in CUCUCU…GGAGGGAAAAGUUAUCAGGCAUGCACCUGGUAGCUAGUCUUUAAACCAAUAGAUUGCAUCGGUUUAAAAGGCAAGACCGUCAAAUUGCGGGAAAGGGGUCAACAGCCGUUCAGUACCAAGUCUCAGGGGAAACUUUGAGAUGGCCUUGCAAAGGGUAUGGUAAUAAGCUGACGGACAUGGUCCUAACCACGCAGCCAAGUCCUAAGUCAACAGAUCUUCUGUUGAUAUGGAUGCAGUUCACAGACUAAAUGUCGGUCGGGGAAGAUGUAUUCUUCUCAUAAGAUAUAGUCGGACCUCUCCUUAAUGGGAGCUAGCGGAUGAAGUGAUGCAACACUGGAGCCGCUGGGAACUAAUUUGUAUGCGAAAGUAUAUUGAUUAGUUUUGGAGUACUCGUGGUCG
Details: 30 °C
Entries annotated with measured self-splicing fitness (ln)
measurement.label: self-splicing fitness (ln)

[
  {
    "residue.string": "UUUGAGCAAUAUUACGGCGC",
    "experimental.result": -2.21
  },
  {
    "residue.string": "AGCGAGCAAUAUUACGCGAC",
    "experimental.result": -2.33
  },
  {
    "residue.string": "UUGUAGCAAUAUUACGAUUU",
    "experimental.result": -3.15
  },
  {
    "residue.string": "CACGAGCAAUAUUACGAAUU",
    "experimental.result": -4.81
  },
  {
    "residue.string": "UUAAAGCAAUAUUACGAACU",
    "experimental.result": -0.567
  },
  {
    "residue.string": "GGCCAGCAAUAUUACGAUUU",
    "experimental.result": -1.9
  },
  {
    "residue.string": "AAACAGCAAUAUUACGCUGU",
    "experimental.result": -3.85
  },
  {
    "residue.string": "UACCAGCAAUAUUACGUUGA",
    "experimental.result": -1.61
  },
  {
    "residue.string": "CAAUAGCAAUAUUACGAGCG",
    "experimental.result": -0.254
  },
  {
    "residue.string": "UCUAAGCAAUAUUACGGACG",
    "experimental.result": -3.16
  },
  {
    "residue.string": "CUCCAGCAAUAUUACGUCAA",
    "experimental.result": -3.08
  },
  {
    "residue.string": "AGAUAGCAAUAUUACGGCGC",
    "experimental.result": -1.32
  },
  {
    "residue.string": "GCUCAGCAAUAUUACGCAAA",
    "experimental.result": -1.15
  },
  {
    "residue.string": "ACCCAGCAAUAUUACGGACU",
    "experimental.result": -0.261
  },
  {
    "residue.string": "AGUUAGCAAUAUUACGCAGA",
    "experimental.result": -2.06
  },
  {
    "residue.string": "GGUGAGCAAUAUUACGACAC",
    "experimental.result": -0.5
  },
  {
    "residue.string": "UAUCAGCAAUAUUACGCCAG",
    "experimental.result": -0.548
  },
  {
    "residue.string": "ACCCAGCAAUAUUACGCGUA",
    "experimental.result": -0.599
  },
  {
    "residue.string": "CCCCAGCAAUAUUACGCGGA",
    "experimental.result": -3.34
  },
  {
    "residue.string": "AACCAGCAAUAUUACGUCGG",
    "experimental.result": -3.79
  },
  {
    "residue.string": "CUUCAGCAAUAUUACGAAAC",
    "experimental.result": -0.955
  },
  {
    "residue.string": "AGUAAGCAAUAUUACGGGUC",
    "experimental.result": -3.31
  },
  {
    "residue.string": "UAAAAGCAAUAUUACGCUCA",
    "experimental.result": -0.334
  },
  {
    "residue.string": "CACGAGCAAUAUUACGGGUA",
    "experimental.result": -3.26
  },
  {
    "residue.string": "CAGUAGCAAUAUUACGAUGC",
    "experimental.result": -3.51
  },
  {
    "residue.string": "ACACAGCAAUAUUACGGCUG",
    "experimental.result": -2.88
  },
  {
    "residue.string": "UUACAGCAAUAUUACGUGAA",
    "experimental.result": -1.16
  },
  {
    "residue.string": "UAAUAGCAAUAUUACGUGUA",
    "experimental.result": -2.19
  },
  {
    "residue.string": "CUCAAGCAAUAUUACGAUAU",
    "experimental.result": -2.97
  },
  {
    "residue.string": "UCCGAGCAAUAUUACGUGAA",
    "experimental.result": -3.29
  },
  {
    "residue.string": "AUCUAGCAAUAUUACGUGUC",
    "experimental.result": -3.9
  },
  {
    "residue.string": "AGCAAGCAAUAUUACGCUGU",
    "experimental.result": -2.69
  },
  {
    "residue.string": "GGGAAGCAAUAUUACGCGAU",
    "experimental.result": -3.63
  },
  {
    "residue.string": "GCCAAGCAAUAUUACGCUGG",
    "experimental.result": -4.4
  },
  {
    "residue.string": "UUAAAGCAAUAUUACGGCCG",
    "experimental.result": 0.199
  },
  {
    "residue.string": "ACGGAGCAAUAUUACGUGGU",
    "experimental.result": -3.91
  },
  {
    "residue.string": "UGGGAGCAAUAUUACGUUUA",
    "experimental.result": -2.62
  },
  {
    "residue.string": "CACUAGCAAUAUUACGUCUG",
    "experimental.result": -0.516
  },
  {
    "residue.string": "CUAGAGCAAUAUUACGAAAA",
    "experimental.result": -1.94
  },
  {
    "residue.string": "CACAAGCAAUAUUACGGUCU",
    "experimental.result": -2.76
  },
  {
    "residue.string": "UAGAAGCAAUAUUACGGCUA",
    "experimental.result": -0.274
  },
  {
    "residue.string": "CCAGAGCAAUAUUACGCGAG",
    "experimental.result": -2.77
  },
  {
    "residue.string": "CGGCAGCAAUAUUACGGUUU",
    "experimental.result": -2.16
  },
  {
    "residue.string": "ACGAAGCAAUAUUACGCAAC",
    "experimental.result": -3.3
  },
  {
    "residue.string": "CAGGAGCAAUAUUACGGUCU",
    "experimental.result": -3.85
  },
  {
    "residue.string": "GGUAAGCAAUAUUACGCAAG",
    "experimental.result": -3.39
  },
  {
    "residue.string": "GACAAGCAAUAUUACGAACA",
    "experimental.result": -1.52
  },
  {
    "residue.string": "GCAUAGCAAUAUUACGGAGC",
    "experimental.result": -3.59
  },
  {
    "residue.string": "CAAUAGCAAUAUUACGUGUC",
    "experimental.result": -3.97
  },
  {
    "residue.string": "AUUUAGCAAUAUUACGUCGC",
    "experimental.result": -3.64
  },
  {
    "residue.string": "UUCGAGCAAUAUUACGUCCU",
    "experimental.result": -3.78
  },
  {
    "residue.string": "AAGAAGCAAUAUUACGCAUC",
    "experimental.result": -1.92
  },
  {
    "residue.string": "CCGCAGCAAUAUUACGUAUG",
    "experimental.result": -1.31
  },
  {
    "residue.string": "CUGUAGCAAUAUUACGAAGU",
    "experimental.result": -2.13
  },
  {
    "residue.string": "CUGCAGCAAUAUUACGAGGC",
    "experimental.result": -2.65
  },
  {
    "residue.string": "UGGUAGCAAUAUUACGCGCA",
    "experimental.result": -0.453
  },
  {
    "residue.string": "AGUGAGCAAUAUUACGCUUC",
    "experimental.result": -2.41
  },
  {
    "residue.string": "CGUAAGCAAUAUUACGUUAC",
    "experimental.result": -3.56
  },
  {
    "residue.string": "CGAGAGCAAUAUUACGUUCA",
    "experimental.result": -2.34
  },
  {
    "residue.string": "UCAAAGCAAUAUUACGGUAG",
    "experimental.result": -1.54
  },
  {
    "residue.string": "GGUAAGCAAUAUUACGUCCU",
    "experimental.result": -1.17
  },
  {
    "residue.string": "UUCUAGCAAUAUUACGCGAC",
    "experimental.result": -1.97
  },
  {
    "residue.string": "GACUAGCAAUAUUACGUGUA",
    "experimental.result": -1.06
  },
  {
    "residue.string": "UAAUAGCAAUAUUACGCUAG",
    "experimental.result": -2.46
  },
  {
    "residue.string": "AGCAAGCAAUAUUACGCCCU",
    "experimental.result": -2.12
  },
  {
    "residue.string": "UGACAGCAAUAUUACGUAUG",
    "experimental.result": -1.56
  },
  {
    "residue.string": "GCCCAGCAAUAUUACGAGUG",
    "experimental.result": -1.37
  }
]
